Molecular target: T1, biotinylated CD3 epsilon:delta heterodimer protein (Amsbio AMS.CDD-H52WO) (Homo sapiens (Human), UniProt P07766 23-126; P04234 22-105)
T1 construct: also called CD3 heterodimer
Assay: BLI (Octet), CD3 on SA sensor, Fab analyte;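 further: fab analyte at several concentrations up to 300 nM, association 100 s then 300 s dissociation in buffer, biosensors blocked with biocytin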
The following binders are shown together with reported kon values.
Form entry: value (M⁻¹ s⁻¹) — number only.

Example cases with answers are listed next.
huSP34.34.10 Fab-HF (Fab, V domains shown, also called HC34+LC10) VH: EVQLVESGGGLVQPGGSLRLSCAASGFTFNTYAMNWVRQAPGKGLEWVGRIRSKYNNYATYYAASVKGRFTISRDDSKNSLYLQMNSLKTEDTAMYYCVRHGNFGHSYVSWFAYWGQGTLVTVSS VL: QAVVTQPPSLTVSPGGTVTLTCGSSTGAVTTGHYANWVQQKPGQAPRGLIGGTNKRAPGVPARFSGSLSGGKAALTISGAQPEDEAEYYCALWYSNRWVFGGGTKLTVL    155000
huSP34.3.13 Fab-HF (Fab, V domains shown, also called HC3+LC13) VH: EVQLVESGGGLVQPGGSLRLSCAASGFTFNTYAMNWVRQAPGKGLEWVGRIRSKYNNYATYYADSVKGRFTISRDDSKNSLYLQMNSLRTEDTAVYYCVRHGNFGHSYVSWFAYWGQGTLVTVSS VL: QAVVTQEPSLTVSPGGTVTLTCGSSTGAVTTGHYANWVQQKPGQAPRGLIGGTSNRAPGVPARFSGSLLGGKAALTISGAQPEDEAEYYCALWYSNRWVFGGGTKLTVL    218000

Which kon is reported for this binder? huSP34.35.10 Fab-HF (Fab, V domains shown, also called HC35+LC10) VH: EVQLVESGGGLVQPGGSLRLSCAASGFTFNDYAMNWVRQAPGKGLEWVGRTRSKYNNYATYYAASVKGRFTISRDDSKNSLYLQMNSLKTEDTAMYYCVRHGNFGHSYVSWFAYWGQGTLVTVSS VL: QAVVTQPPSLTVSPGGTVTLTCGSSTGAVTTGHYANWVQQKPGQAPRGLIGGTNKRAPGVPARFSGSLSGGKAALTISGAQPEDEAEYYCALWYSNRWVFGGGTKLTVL
339000
